# system-tested: hGLP-1R (Homo sapiens, UniProt P43220)
# Sequence (P43220 24-463): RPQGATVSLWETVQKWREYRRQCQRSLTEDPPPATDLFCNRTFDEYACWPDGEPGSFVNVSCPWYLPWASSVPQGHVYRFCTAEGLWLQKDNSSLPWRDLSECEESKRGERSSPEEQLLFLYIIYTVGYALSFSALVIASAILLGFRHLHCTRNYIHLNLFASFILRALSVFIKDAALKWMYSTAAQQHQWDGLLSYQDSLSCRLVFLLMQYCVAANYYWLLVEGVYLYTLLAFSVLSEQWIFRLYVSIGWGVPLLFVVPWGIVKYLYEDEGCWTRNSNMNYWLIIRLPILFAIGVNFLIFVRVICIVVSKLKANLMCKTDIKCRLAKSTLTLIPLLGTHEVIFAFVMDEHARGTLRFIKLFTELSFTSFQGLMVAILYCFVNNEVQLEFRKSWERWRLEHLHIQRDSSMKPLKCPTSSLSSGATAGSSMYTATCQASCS
# assay: Functional cAMP activity in the presence of 1% HSA
# Type: cell-based
# assay-setup: read-out: cAMP Rel EC50, hGLP-1R
Starred links: 1 amine or outer side, 2 acyl side, 3 side chain; linkers in the order of their positions; H or OH if unused. Non-standard residues stand in square brackets, D forms with d. Groups on a side chain read outwards from the residue. *: point of attachment. C18 diacid = O=C(O)CCCCCCCCCCCCCCCCC(=O)*; αMePhe(2-F) = C[C@](N)(Cc1ccccc1F)C(=O)O; γGlu = O=C(O)[C@H](CCC(=O)[*:2])N[*:1]; αMe4Pal = C[C@](N)(Cc1ccncc1)C(=O)O; αMeY = C[C@](N)(Cc1ccc(O)cc1)C(=O)O; 4Pal = N[C@@H](Cc1ccncc1)C(=O)O; αMeL = CC(C)C[C@](C)(N)C(=O)O; αMeS = C[C@](N)(CO)C(=O)O; Orn = NCCC[C@H](N)C(=O)O; AEEA = NCCOCCOCC(=O)O; Aib = CC(C)(N)C(=O)O
Entries and their pEC50
Remember, pEC50 is on a log scale: it is -log10 of the molar concentration.

>  <substance>
H-Y[Aib]QGT[αMePhe(2-F)]TSD[4Pal][αMeS]I[αMeL]LD[Orn]K([AEEA-γGlu-γGlu-C18 diacid])AQ[αMe4Pal]EFI[dE][αMeY]LIEGGPSSGEPPPSGSE-NH2 [Example 1179]

>  <parameter-measured>
pEC50

>  <measured-number>
7.42

$$$$
>  <substance>
H-Y[Aib]QGTFTSD[4Pal]S[Orn][αMeL]LDKK([γGlu-γGlu-C18 diacid])AQ[Aib]AFIE[αMeY]LLEGGPSSGAPPPSGS-NH2 [Example 942]

>  <parameter-measured>
pEC50

>  <measured-number>
6.31

$$$$
>  <substance>
H-Y[Aib]QGTFTSD[4Pal]SK[αMeL]LDKK([AEEA-γGlu-C18 diacid])AQ[Aib]AFIEYLIE[dA]GESSGEPPPSGS-NH2 [Example 284]

>  <parameter-measured>
pEC50

>  <measured-number>
6.57

$$$$
>  <substance>
H-Y[Aib]QGT[αMePhe(2-F)]TSD[4Pal][αMeS]I[αMeL]LD[Orn]K([Glu-γGlu-C18 diacid])AQ[Aib][Orn]FI[dE][αMeY]LSEGGPSSGEPPPSGTE-NH2 [Example 563]

>  <parameter-measured>
pEC50

>  <measured-number>
7.01

$$$$

Query substance follows.
# input Quick one: pEC50 of H-Y[Aib]QGTFTSD[4Pal]SQ[αMeL]LD[Orn]K([γGlu-γGlu-C18 diacid])AQ[αMe4Pal]QFIE[αMeY]LIEGGPSSGAPPPSGSEE-NH2 [Example 1046] ?
# output 6.28

###

# system-tested: hGLP-1R (Homo sapiens)
# assay: Functional cAMP activation in the presence of 0.1% casein (no HSA);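 note: intracellular cAMP rise after 30 min at 37 °C read by HTRF, normalized between buffer only (0%) and maximal control ligand (100%), four-parameter variable-slope fit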
# Assay type: cell-based
# assay-setup: in the presence of 0.1% casein (no HSA); geometric mean; read-out: Relative cAMP EC50, hGLP-1R
Starred links: 1 amine or outer side, 2 acyl side, 3 side chain; linkers in the order of their positions; H or OH if unused. Non-standard residues stand in square brackets, D forms with d. Groups on a side chain read outwards from the residue. *: point of attachment. C20 diacid = O=C(O)CCCCCCCCCCCCCCCCCCC(=O)*; C18 diacid = O=C(O)CCCCCCCCCCCCCCCCC(=O)*; γGlu = O=C(O)[C@H](CCC(=O)[*:2])N[*:1]; αMe4Pal = C[C@](N)(Cc1ccncc1)C(=O)O; αMeY = C[C@](N)(Cc1ccc(O)cc1)C(=O)O; αMeF = C[C@](N)(Cc1ccccc1)C(=O)O; 4Pal = N[C@@H](Cc1ccncc1)C(=O)O; αMeL = CC(C)C[C@](C)(N)C(=O)O; αMeS = C[C@](N)(CO)C(=O)O; Orn = NCCC[C@H](N)C(=O)O; AEEA = NCCOCCOCC(=O)O; Aib = CC(C)(N)C(=O)O
parameter-measured: EC50 (nM)
Dear colleague, please return just the value in nM, with no unit written.

>  <substance>
H-Y[Aib]QGT[αMeF]TSD[4Pal][αMeS]I[αMeL]LD[Orn]K([γGlu-γGlu-C18 diacid])AQ[αMe4Pal]EFI[dE][αMeY]LIEGGPSSGEPPPSGSE-NH2 [Example 1173]

>  <measured-number>
0.604

$$$$
>  <substance>
H-Y[Aib]QGTFTSDFS[Orn][αMeL]LDKK([AEEA-γGlu-C20 diacid])AQ[Aib]AFIEYLLE[Aib]GPSSGAPPPSGS-NH2 [Example 73]

>  <measured-number>
2.44

$$$$
>  <substance>
H-Y[Aib]QGTFTSD[4Pal]SQ[αMeL]LD[Orn]K([AEEA-γGlu-C18 diacid])AQ[Aib]AFIE[αMeY]LIEGGPSSGAPPPSGS-NH2 [Example 850]

>  <measured-number>
0.451

$$$$
>  <substance>
H-Y[Aib]QGTFTSD[4Pal][αMeS]Q[αMeL]LD[Orn]K([dE-γGlu-C18 diacid])AQ[αMe4Pal]QFIE[αMeY]LIE[Aib]GPSSGAPPPSGGGE-NH2 [Example 1187]

>  <measured-number>
1.06

$$$$

Query substance follows.
# input Quick one: EC50 of H-Y[Aib]QGTFTSDFS[Orn][αMeL]LDKK([AEEA-γGlu-C18 diacid])AQ[Aib]AFIEYLIE[Aib]SPSSGAPPPSGS-NH2 [Example 804] ?
# output 0.915
